- testSummary: Oral bioavailability in ICR mouse at 1 mg/kg administered as cassette dose
- Format: ADME, organism-based
- conditionDescription: in vivo
readoutName: bioavailability (%)

>>> result("O=C(c1ccnc2ccccc12)N1CCN(C(=O)c2ccc(Br)cc2)[C@@H](c2ccc(Cl)cc2)C1")
19.7
>>> result("Cn1cc(C(=O)N2CCN(C(=O)c3ccc(Br)cn3)[C@@H](c3ccc(Cl)cc3)C2)cc(-c2cccc(C#N)c2)c1=O")
16.1
>>> result("O=C(c1cnn2cc(Br)ccc12)N1CCN(C(=O)c2ccc(Br)cn2)[C@@H](c2ccc(Cl)cc2)C1")
11.4
>>> result("O=C(c1cncc2ccccc12)N1CCN(C(=O)c2ccc(Br)cc2)[C@@H](c2ccc(Cl)cc2)C1")
0.4

1 = O=C(c1cnn2cc(Br)ccc12)N1CCN(C(=O)c2ccc(Br)cc2)[C@@H](c2ccc(Cl)cc2)C1
2 = O=C(c1c[nH]c(=O)c2ccccc12)N1CCN(C(=O)c2ccc(Br)cc2)[C@@H](c2ccc(Cl)cc2)C1
Query: Sorting ascending by bioavailability, which comes first: 1 or 2 ? Respond using the label that marks the chosen record.
Reply: 1
(1: 5.7%, 2: 9.6%)
